The reported measurements were obtained from ChEMBL document CHEMBL5634099.

- Tested on: Staphylococcus aureus
- ASSAY_PROTOCOL: Antibacterial activity against Staphylococcus aureus ATCC 29213 assessed as bacterial growth inhibition incubated for 16 to 18 hrs by CLSI based susceptibility testing method
- Type: functional
- CONDITION_CONTEXT: time 16-18 hrs
Entries and their measured log10 of MIC follow.
REPORTED_ENDPOINT: log10 of MIC (log10 of the value in µg/mL)

| MOLECULE | EXPERIMENTAL_RESULT |
| --- | --- |
| Cc1cc(/C=C2\S/C(=N/c3nccs3)NC2=O)c(C)n1-c1cccc(F)c1 | 0.00 |
| Cc1cc(/C=C2\S/C(=N/c3nccs3)NC2=O)c(C)n1-c1ccccc1 | 0.30 |
| COc1ccc(-n2c(C)cc(/C=C3\S/C(=N/c4nccs4)NC3=O)c2C)cc1 | 0.30 |
| Cc1cc(/C=C2\S/C(=N/c3nccs3)NC2=O)c(C)n1-c1ccccc1Cl | 0.60 |
| Cc1nc(/N=C2\NC(=O)/C(=C/c3cc(C)n(-c4cc(Cl)ccc4O)c3C)S2)sc1C | 1.81 |
| C[C@H]1COc2c(N3CCN(C)CC3)c(F)cc3c(=O)c(C(=O)O)cn1c23 [LEVOFLOXACIN ANHYDROUS] | -0.60 |
| Cc1cc(/C=C2\S/C(=N/c3nccs3)NC2=O)c(C)n1-c1ccccc1Br | 0.60 |
| Cc1cc(/C=C2\S/C(=N/c3nccs3)NC2=O)c(C)n1-c1ccc(Cl)cc1 | 0.60 |
| Cc1cc(/C=C2\S/C(=N/c3nccs3)NC2=O)c(C)n1-c1cc(Cl)ccc1O | 0.00 |
| COc1ccccc1-n1c(C)cc(/C=C2\S/C(=N/c3nccs3)NC2=O)c1C | -0.30 |

* * *

- Test system: Staphylococcus aureus
- ASSAY_PROTOCOL: Antibacterial activity against methicillin-resistant Staphylococcus aureus NR 191 clinical isolate assessed as bacterial growth inhibition incubated for 16 to 18 hrs by CLSI based susceptibility testing method
- Type: functional
- CONDITION_CONTEXT: time 16-18 hrs

| COMPOUND | TARGET_OF_ASSAY | INEQUALITY_OPERATOR | MIC [µg/mL] |
| --- | --- | --- | --- |
| COc1cccc(OC)c1C(=O)N[C@@H]1C(=O)N2[C@@H]1SC(C)(C)[C@@H]2C(=O)O | Staphylococcus aureus | > | 64 |
| COc1ccccc1-n1c(C)cc(/C=C2\S/C(=N/c3nccs3)NC2=O)c1C | Staphylococcus aureus | = | 2 |
| C[C@@H](O)[C@H]1C(=O)N2C(C(=O)O)=C(S[C@@H]3CN[C@H](C(=O)N(C)C)C3)[C@H](C)[C@H]12 | Staphylococcus aureus | = | 32 |
| C[C@H]1COc2c(N3CCN(C)CC3)c(F)cc3c(=O)c(C(=O)O)cn1c23 [LEVOFLOXACIN ANHYDROUS] | Staphylococcus aureus | = | 16 |

* * *

Entries and their measured MIC follow.
- Test system: Staphylococcus aureus
- ASSAY_PROTOCOL: Antibacterial activity against methicillin-sensitive Staphylococcus aureus ATCC 29213 clinical isolate assessed as bacterial growth inhibition incubated for 16 to 18 hrs by CLSI based susceptibility testing method
- Format: functional
- CONDITION_CONTEXT: time 16-18 hrs

| MOLECULE | TARGET_OF_ASSAY | MIC |
| --- | --- | --- |
| COc1cccc(OC)c1C(=O)N[C@@H]1C(=O)N2[C@@H]1SC(C)(C)[C@@H]2C(=O)O | Staphylococcus aureus | 1 µg/mL |
| C[C@H]1COc2c(N3CCN(C)CC3)c(F)cc3c(=O)c(C(=O)O)cn1c23 [LEVOFLOXACIN ANHYDROUS] | Staphylococcus aureus | 0.25 µg/mL |
| COc1ccccc1-n1c(C)cc(/C=C2\S/C(=N/c3nccs3)NC2=O)c1C | Staphylococcus aureus | 0.5 µg/mL |
| C[C@@H](O)[C@H]1C(=O)N2C(C(=O)O)=C(S[C@@H]3CN[C@H](C(=O)N(C)C)C3)[C@H](C)[C@H]12 | Staphylococcus aureus | 0.125 µg/mL |
